- ASSAY_SYSTEM: hGSTM1-1 (Homo sapiens)
- Sequence (P09488 whole entry): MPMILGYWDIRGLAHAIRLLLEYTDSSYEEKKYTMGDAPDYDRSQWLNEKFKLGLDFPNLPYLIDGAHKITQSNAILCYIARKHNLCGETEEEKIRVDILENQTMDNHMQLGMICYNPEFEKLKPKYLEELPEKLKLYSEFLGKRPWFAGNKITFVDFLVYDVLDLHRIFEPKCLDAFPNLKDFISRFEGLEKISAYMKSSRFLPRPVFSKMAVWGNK
- PROCEDURE_TEXT: IC50 determination, concentration-response in CDNB-GSH assay
- Type: biochemical
- Set-up: made in house; host or cells: E. coli
- EXPERIMENTAL_CONDITIONS: 37 °C, pH 6.5; CDNB-GSH assay; read-out: IC50

SMILES_TEXT | ASSAY_SYSTEM | ENDPOINT_UNIT | IC50
CCCCOCN(C(=O)CCl)c1c(CC)cccc1CC | hGSTM1-1 (Homo sapiens) | µM | 236
CC1(C(=O)Nc2ccc(O)c(Cl)c2Cl)CCCCC1 | hGSTM1-1 (Homo sapiens) | µM | 278

Hello, the source for this data is paper PMC8998827, in case you need it.
